- System: SR leukemia
- TEST_METHOD_NOTES: NCI-60 one-dose screen, 48 h (100 = growth as untreated, 0 = no growth, -100 = all killed)
- EXPERIMENTAL_CONTEXT: 10 µM unless noted
- Experimental: Growth inhibition of the SR human tumor cell line is measured as a screen for anti-cancer activity. Cells are grown in 96 well plates and exposed to the test compound for 48 hours. Compounds are tested at a single concentration, which is 10^-5 M for most compounds. The reported endpoint is percent growth (GI% or GIPRCNT), where numbers from 0 - 100% represent growth inhibition, and numbers from -100% - 0 represent cell death. For example, a value of 40 represents 60% growth inhibition. […]
Compounds without any hit were thinned out: in the full panel of roughly 83,000, 20% have a hit. Calls of active or inactive are those of the source. How the source made its calls: active means growth percent below 10; inactive means the rest.
ASSAY_READOUT: growth

compound="COc1ccc(/C=N/OCC(O)CNCc2ccccc2)cc1OC1CCCC1 (stereo not given)" system_name="SR leukemia" test_result="87% (inactive)"
compound=COc1cc(Cn2cc(F)c(=O)[nH]c2=O)cc(OC)c1 system_name="SR leukemia" test_result="103% [50 µM] (inactive)"
compound=CCCCC/C=C\C/C=C/CCCCCCCCNC(=O)Nc1ccc([N+](=O)[O-])cc1 system_name="SR leukemia" test_result="34.9% (inactive)"
compound=O=C(NCc1cccnc1)c1ccc([N+](=O)[O-])o1 system_name="SR leukemia" test_result="23% (inactive)"

I have this compound here, `Cc1cc(O)cc2c1[C@H]1CC[C@]3(C)[C@@H](O)CC[C@H]3[C@@H]1C=C2` , and I need its recorded growth.
40.3% (inactive)

Cool, now `O=C1C(Br)=C(c2ccccc2)C(=O)C(Br)=C1c1ccccc1`
71.1% (inactive)
